# credit: patent US5629322A

Consider the following compounds; for each one, report its IC50.
- measurement-target: ncNOS (Homo sapiens)
- Sequence (P29475 whole entry): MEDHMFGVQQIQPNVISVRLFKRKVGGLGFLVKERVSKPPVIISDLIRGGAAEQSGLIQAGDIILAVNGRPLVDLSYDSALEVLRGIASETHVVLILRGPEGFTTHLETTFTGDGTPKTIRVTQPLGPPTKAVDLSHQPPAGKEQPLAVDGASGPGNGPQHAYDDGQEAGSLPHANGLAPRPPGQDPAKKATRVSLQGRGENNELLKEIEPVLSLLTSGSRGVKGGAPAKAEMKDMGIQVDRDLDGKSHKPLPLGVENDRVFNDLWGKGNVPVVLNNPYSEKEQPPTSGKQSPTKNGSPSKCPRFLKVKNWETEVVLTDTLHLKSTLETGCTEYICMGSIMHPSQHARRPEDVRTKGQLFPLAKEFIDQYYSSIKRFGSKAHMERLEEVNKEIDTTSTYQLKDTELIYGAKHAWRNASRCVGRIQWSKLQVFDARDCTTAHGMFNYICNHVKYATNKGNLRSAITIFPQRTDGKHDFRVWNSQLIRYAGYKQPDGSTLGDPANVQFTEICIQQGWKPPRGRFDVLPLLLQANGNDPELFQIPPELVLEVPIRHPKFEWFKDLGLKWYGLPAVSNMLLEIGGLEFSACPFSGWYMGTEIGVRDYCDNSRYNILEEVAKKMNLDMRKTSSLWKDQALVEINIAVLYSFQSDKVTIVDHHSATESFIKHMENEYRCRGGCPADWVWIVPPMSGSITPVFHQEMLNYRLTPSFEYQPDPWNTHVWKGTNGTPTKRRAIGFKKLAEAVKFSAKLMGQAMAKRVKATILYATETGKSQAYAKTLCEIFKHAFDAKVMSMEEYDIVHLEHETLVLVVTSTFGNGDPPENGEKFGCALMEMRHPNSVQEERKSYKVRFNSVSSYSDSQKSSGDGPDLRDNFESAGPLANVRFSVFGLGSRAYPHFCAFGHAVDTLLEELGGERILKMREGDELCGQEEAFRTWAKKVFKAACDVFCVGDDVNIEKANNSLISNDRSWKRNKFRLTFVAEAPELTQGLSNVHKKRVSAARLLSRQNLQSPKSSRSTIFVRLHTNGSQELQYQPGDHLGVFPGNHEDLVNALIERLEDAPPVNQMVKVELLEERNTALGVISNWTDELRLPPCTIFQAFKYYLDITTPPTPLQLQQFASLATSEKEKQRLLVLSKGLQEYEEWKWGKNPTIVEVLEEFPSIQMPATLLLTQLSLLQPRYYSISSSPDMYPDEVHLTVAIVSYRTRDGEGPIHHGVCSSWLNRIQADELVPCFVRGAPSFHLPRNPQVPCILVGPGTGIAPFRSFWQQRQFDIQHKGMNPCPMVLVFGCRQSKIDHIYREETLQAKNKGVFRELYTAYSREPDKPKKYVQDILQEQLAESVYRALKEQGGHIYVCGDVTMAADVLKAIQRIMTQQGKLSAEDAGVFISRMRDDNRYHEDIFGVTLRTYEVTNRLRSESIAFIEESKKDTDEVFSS
- method-notes: biochemical
Where a name gives a salt, the structure may show the parent alone.

Solved cases below.
CC1CN=C(N)C1 (stereo not drawn) [Table 4: H, CH3, H, H, H, hydrochloride]
≤ 1000 nM
CC1CCN=C1N (stereo not drawn) [Table 4: CH3, H, H, H, H, hydrochloride]
≤ 1000 nM
CC1CCC(N)=N1 (stereo not drawn) [Table 4: H, H, CH3, H, H, hydrochloride]
≤ 10000 nM
CCC1N=C(N)CC1C (stereo not drawn) [Table 4: H, CH3, C2H5, H, H, hydrochloride]
≤ 1000 nM
NC1=NCCC1 [Table 4: H, H, H, H, H, 1-Aza-2-imino-cyclopentane hydrochloride]
≤ 10000 nM

Next:
Can you share its IC50? I mean this compound: C[C@@H]1CC(=N)N[C@H](C)C1 (relative stereo) [Table 5: CH, H, CH3, H, CH3, H, H, acetic acid salt]
≤ 1000 nM

====

- measurement-target: ncNOS (Homo sapiens)
- method-notes: biochemical
- recorded-conditions: Table 5; read-out: IC50 ncNOS
Counter-ions that a name gives are not always drawn.
value-kind: IC50

Solved cases below.
CC[C@@H]1C(=N)NCC[C@@H]1C (relative stereo) [Table 5: CH, C2H5, CH3, H, H, H, H, hydrochloride]
≤ 10 µM
CCCC1CCN=C(N)C1 (centres unmarked) [Table 5: CH, H, n-C3H7, H, H, H, H, 2-Imino-4-propylpiperidine hydrochloride]
> 50 µM
CC1CNC(=N)C(C)C1 (centres unmarked) [Table 5: CH2, CH3, H, CH3, H, H, H, hydrochloride]
≤ 1 µM
CC1C(=N)NCC2CCCC21 (centres unmarked) [Table 5: CH, CH3, (CH2)3, H, H, H, hydrochloride]
≤ 10 µM
CCCOC1CCC(=N)NC1 (centres unmarked) [Table 5: CH2, H, H, O-n-C3H7, H, H, H, acetic acid salt]
≤ 10 µM

Need IC50 for each of these compounds.
1. N=C1CNCCN1 [Table 5: N, H, H, H, H, H, H, 2-Iminopiperazine hydrochloride]
2. N=C1CCC(C(F)(F)F)CN1 (centres unmarked)
3. CCC[C@@H]1C(=N)NCC[C@@H]1C (relative stereo) [Table 5: CH, n-C3H7, CH3, H, H, H, H, hydrochloride]

≤ 50 µM
> 50 µM
≤ 50 µM
